# assayed_target: T1, hFc-hC3d fusion protein (human, UniProt P01024 1002-1303, limits assumed)
# T1 construct: domain: C3d; also called immobilized hC3d; not shown: human IgG Fc (hFc), captured by an anti-human IgG CH2 / Fcγ mAb
# T1 sequence (P01024 1002-1303 limits assumed): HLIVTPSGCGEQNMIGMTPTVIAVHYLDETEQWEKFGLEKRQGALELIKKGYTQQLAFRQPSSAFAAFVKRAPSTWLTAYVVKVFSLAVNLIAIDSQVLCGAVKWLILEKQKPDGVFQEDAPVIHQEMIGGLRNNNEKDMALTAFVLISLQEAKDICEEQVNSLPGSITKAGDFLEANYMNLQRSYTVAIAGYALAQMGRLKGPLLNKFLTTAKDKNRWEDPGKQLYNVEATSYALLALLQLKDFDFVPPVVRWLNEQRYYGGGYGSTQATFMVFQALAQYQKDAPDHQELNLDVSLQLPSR
# experimental_details: SPR (Biacore X100), Fab over captured hFc-hC3d
quantity: koff (s⁻¹)
Field format: number, assumed s⁻¹, no unit text.

Could you please provide reported koff for Ab2 Fab (His-tagged rabbit/human chimeric anti-C3d Fab) (Fab, V domains shown, Fab with rabbit Vκ/human Cκ/rabbit VH, His-tagged; also called Ab2 (κ)) VH: QSVEESGGRLVTPGTPLTLTCTVSGFSLSSYAMTWVRQAPGKGLEWIGVIGTSGMRYYANWAKGRFTISKTSTTVDLKITSPTTEDTATYFCARANFYVGNDESTDAFDPWGPGTLVTVSS VL: ALVMTQTPPSLSASVGETVRIRCLASEDIYNTISWYQQKPGKPPTLLIYGASNLKSGVPPRFSGSGSGTDYTLTIGGVQSEDAATYYCLGGYSYSSTGLTFGAGTKVEIK ? Thanks! 0.00054

Could you please provide reported koff for Ab3 Fab (His-tagged rabbit/human chimeric anti-C3d Fab) (Fab, V domains shown, Fab with rabbit Vκ/human Cκ/rabbit VH, His-tagged; also called Ab3 (κ)) VH: QKQLVESGGRLVTPGGSLTLTCTISGIDLNTYGMTWVRQAPGKGLEYIGIIVSSGNTYYANWAQGRFTISKTSTTVDLKMTSLTASDTATYFCARGLGRAYSSGYGMDGWGPGTLVTVSS VL: DPVLTQTPSSTSAAVGGTVTIKCQASQNIYTSLAWYQQKPGQPPKLLIYGASNLASGVPSRFKGSRSGTEYTLTISGVEREDAATYYCLGSYTQIDTTFGGGTKLEIK ? Thanks! 0.00126

Could you please provide reported koff for Ab5 Fab (His-tagged rabbit/human chimeric anti-C3d Fab) (Fab, V domains shown, Fab with rabbit Vκ/human Cκ/rabbit VH, His-tagged; also called Ab5 (κ)) VH: QSLEESGGRLVTPGTPLTLTCTVSGFSLSTYTLGWVRQAPGKGLEYIGWIDSSGSAYYASWAKGRFTISKASSTTVDLKMAGLTTEDTATYFCASGNTGGDPLYYGMDPWGPGTLVTVSS VL: DPVLTQTPSSTSAAVGGTVTIKCQASQNIGRWLAWYQQKPGQPPKLLIYRASDLASGVPSRFKGSGSGTQFTLTISGVQREDAATYYCLGSYSSSDSAFGGGTEVVVK ? Thanks! 0.00014
